Listing of entries alongside the reported pIC50.
# subject-of-test: NIH-3T3 cells overexpressing human IGF-1R (Homo sapiens, UniProt P08069)
# Sequence (P08069 31-1367): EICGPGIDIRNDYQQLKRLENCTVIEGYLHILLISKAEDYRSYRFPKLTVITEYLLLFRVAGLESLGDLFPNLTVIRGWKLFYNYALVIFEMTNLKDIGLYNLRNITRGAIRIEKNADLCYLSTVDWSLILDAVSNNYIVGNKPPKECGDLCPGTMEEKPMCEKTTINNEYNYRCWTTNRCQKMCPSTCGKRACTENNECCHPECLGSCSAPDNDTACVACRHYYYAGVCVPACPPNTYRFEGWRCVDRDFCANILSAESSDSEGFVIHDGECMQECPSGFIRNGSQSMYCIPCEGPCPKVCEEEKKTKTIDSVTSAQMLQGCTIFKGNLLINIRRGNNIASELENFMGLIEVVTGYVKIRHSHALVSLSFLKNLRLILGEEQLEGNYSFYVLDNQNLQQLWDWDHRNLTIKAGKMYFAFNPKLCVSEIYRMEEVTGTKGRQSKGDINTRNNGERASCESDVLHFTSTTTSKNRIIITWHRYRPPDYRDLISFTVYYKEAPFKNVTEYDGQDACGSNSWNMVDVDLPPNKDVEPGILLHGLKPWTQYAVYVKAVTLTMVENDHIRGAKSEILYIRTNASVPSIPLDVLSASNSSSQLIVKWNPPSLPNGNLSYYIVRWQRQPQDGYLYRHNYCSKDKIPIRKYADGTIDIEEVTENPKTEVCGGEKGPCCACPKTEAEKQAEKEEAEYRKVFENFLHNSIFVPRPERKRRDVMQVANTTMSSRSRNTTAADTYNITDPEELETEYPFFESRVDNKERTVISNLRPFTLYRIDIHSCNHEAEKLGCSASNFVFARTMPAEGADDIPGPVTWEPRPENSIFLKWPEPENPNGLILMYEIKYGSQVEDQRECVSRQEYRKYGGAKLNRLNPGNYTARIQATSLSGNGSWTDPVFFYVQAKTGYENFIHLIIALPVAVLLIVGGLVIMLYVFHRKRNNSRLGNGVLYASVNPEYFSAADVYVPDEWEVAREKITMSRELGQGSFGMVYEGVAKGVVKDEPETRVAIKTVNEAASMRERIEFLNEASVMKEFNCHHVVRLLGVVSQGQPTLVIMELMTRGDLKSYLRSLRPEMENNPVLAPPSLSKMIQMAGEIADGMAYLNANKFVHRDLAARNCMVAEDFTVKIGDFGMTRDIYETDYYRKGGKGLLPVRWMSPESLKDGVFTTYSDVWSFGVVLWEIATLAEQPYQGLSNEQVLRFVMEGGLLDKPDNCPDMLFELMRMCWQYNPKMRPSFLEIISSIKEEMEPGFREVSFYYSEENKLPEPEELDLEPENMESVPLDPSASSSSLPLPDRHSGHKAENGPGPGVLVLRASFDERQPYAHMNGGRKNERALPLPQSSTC
# test: IGF-1R cellular autophosphorylation (DELFIA)
pIC50: −log10 of the molar value.

molecule	subject-of-test	pIC50
CNC(=O)c1ccccc1Nc1nc(Nc2ccc(C3=CCCN(C)C3)cc2OC)nc2[nH]ccc12 [Example 21]	NIH-3T3 cells overexpressing human IGF-1R (Homo sapiens, UniProt P08069)	6.30 to 7.00
COc1cc(N2CCC(N3CCN(S(C)(=O)=O)CC3)CC2)ccc1Nc1nc(Nc2cccc(F)c2C(N)=O)c2cc[nH]c2n1 [Example 113]	NIH-3T3 cells overexpressing human IGF-1R (Homo sapiens, UniProt P08069)	> 7.00
COc1cc2c(cc1Nc1nc(Nc3cccc(F)c3C(N)=O)c3cc[nH]c3n1)CN(CCF)CC2 [Example 233]	NIH-3T3 cells overexpressing human IGF-1R (Homo sapiens, UniProt P08069)	6.30 to 7.00

# evaluate next
Query: State pIC50 (NIH-3T3 cells overexpressing human IGF-1R (Homo sapiens, UniProt P08069)) of COc1cc(N2CCC[C@H](O)C2)ccc1Nc1nc(Nc2cc(F)ccc2C(N)=O)c2cc[nH]c2n1 [Example 74] .
Result: 6.30 to 7.00

====

# subject-of-test: human IR (hIR) (Homo sapiens, UniProt P06213)
# Construct: containing amino acid residues 979-1382 of human IR
# Sequence (P06213 979-1382): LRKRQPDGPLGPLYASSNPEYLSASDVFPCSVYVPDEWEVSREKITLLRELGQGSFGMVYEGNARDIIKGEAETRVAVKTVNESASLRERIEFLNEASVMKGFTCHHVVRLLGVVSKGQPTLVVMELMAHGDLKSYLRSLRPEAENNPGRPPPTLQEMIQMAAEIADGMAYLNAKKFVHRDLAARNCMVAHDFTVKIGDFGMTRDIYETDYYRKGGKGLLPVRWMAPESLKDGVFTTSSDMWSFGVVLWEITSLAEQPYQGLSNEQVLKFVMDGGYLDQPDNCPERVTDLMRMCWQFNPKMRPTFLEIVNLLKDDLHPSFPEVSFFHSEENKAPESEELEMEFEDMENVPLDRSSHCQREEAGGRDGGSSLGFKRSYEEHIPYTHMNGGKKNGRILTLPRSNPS
# test: TR-FRET kinase assay of purified hIR
# recorded-conditions: activated hIR 0.5 nM, 10 μM ATP, values given as pIC50 category
parameter-measured: IC50

Here is how some compounds turned out for IC50.
compound	measured-result
Cc1ccc(NC(=O)CN(C)C)cc1Nc1nc(Nc2ccc(Cl)cc2C(N)=O)c2cc[nH]c2n1	0.251 to 1 nM
COc1cc2c(cc1Nc1nc(Nc3ccc(F)c(F)c3C(N)=O)c3cc[nH]c3n1)N(C(=O)CN(C)C)CCC2	0.251 to 1 nM
COc1cc(N2CCN(C(C)C)CC2)c(C)cc1Nc1nc(Nc2cc(F)cc(F)c2C(N)=O)c2cc[nH]c2n1	1.26 to 3.98 nM
COc1cc2c(cc1Nc1nc(Nc3cccc(F)c3C(N)=O)c3cc[nH]c3n1)N(C(=O)CCN1CCOCC1)CC2	5.01 to 158 nM
COc1cc2c(cc1Nc1nc(Nc3cc(F)cc(F)c3C(N)=O)c3cc[nH]c3n1)N(C(=O)[C@@H]1CCCN1C)CC2	1.26 to 3.98 nM
COc1cc2c(cc1Nc1nc(Nc3cc(F)cc(F)c3C(N)=O)c3cc[nH]c3n1)N(C(=O)CN(C)C)CCC2	0.251 to 1 nM
COc1cc(N2CCN(C(C)C)CC2)ccc1Nc1nc(Nc2cccc3c2C(=O)NC3)c2cc[nH]c2n1	1.26 to 3.98 nM
CCCN1CCC=C(c2ccc(Nc3nc(Nc4cc(F)ccc4C(=O)N[C@@H](C)CC)c4cc[nH]c4n3)c(OC)c2)C1	1.26 to 3.98 nM

Query: State IC50 (human IR (hIR) (Homo sapiens, UniProt P06213)) of `CNC(=O)c1c(F)cccc1Nc1nc(Nc2cc3c(cc2OC)CCN3C(=O)C(C)(C)O)nc2[nH]ccc12` .
Result: 5.01 to 158 nM

Query: State IC50 (human IR (hIR) (Homo sapiens, UniProt P06213)) of `COc1cc(OCCCN2CCN(C)CC2)ccc1Nc1nc(Nc2cccc(F)c2C(N)=O)c2cc[nH]c2n1` .
Result: 1.26 to 3.98 nM

Query: State IC50 (human IR (hIR) (Homo sapiens, UniProt P06213)) of `COc1cc2c(cc1Nc1nc(Nc3cccc(F)c3C(N)=O)c3cc[nH]c3n1)N(C(=O)N(C)C)CC2` .
Result: 5.01 to 158 nM

Query: State IC50 (human IR (hIR) (Homo sapiens, UniProt P06213)) of `CCCN1CCC=C(c2ccc(Nc3nc(Nc4ccc(C)cc4C(N)=O)c4cc[nH]c4n3)c(C)c2)C1` .
Result: 1.26 to 3.98 nM

Query: State IC50 (human IR (hIR) (Homo sapiens, UniProt P06213)) of `COc1cc(N2CCC(N3CCCCC3)CC2)ccc1Nc1nc(Nc2cc(F)c(F)cc2C(N)=O)c2cc[nH]c2n1` .
Result: 0.251 to 1 nM

Query: State IC50 (human IR (hIR) (Homo sapiens, UniProt P06213)) of COc1cc(C2CCCN(C)C2)ccc1Nc1nc(Nc2ccccc2C(N)=O)c2cc[nH]c2n1 (centres unmarked) .
Result: 0.251 to 1 nM

Query: State IC50 (human IR (hIR) (Homo sapiens, UniProt P06213)) of `Cc1cc(N2CCOCC2)ccc1Nc1nc(Nc2ccccc2C(N)=O)c2cc[nH]c2n1` .
Result: 1.26 to 3.98 nM

Query: State IC50 (human IR (hIR) (Homo sapiens, UniProt P06213)) of `COc1cc2c(cc1Nc1nc(Nc3ccc(F)c(F)c3C(=O)NC(C)C)c3cc[nH]c3n1)N(C(=O)CN(C)C)CC2` .
Result: 5.01 to 158 nM

Query: State IC50 (human IR (hIR) (Homo sapiens, UniProt P06213)) of `COc1cc2c(cc1Nc1nc(Nc3ccc(F)c(F)c3C(N)=O)c3cc[nH]c3n1)N(C(=O)CN(C)C)CC2` .
Result: 1.26 to 3.98 nM

Query: State IC50 (human IR (hIR) (Homo sapiens, UniProt P06213)) of `COc1cc2c(cc1Nc1nc(Nc3cccc(F)c3C(N)=O)c3cc[nH]c3n1)N(C(=O)CN1CCC1)CC2` .
Result: 0.251 to 1 nM

Query: State IC50 (human IR (hIR) (Homo sapiens, UniProt P06213)) of `COc1cc(N2CCC(N3CCOCC3)CC2)ccc1Nc1nc(Nc2cc(F)c(F)cc2C(N)=O)c2cc[nH]c2n1` .
Result: 0.251 to 1 nM

Origin of the recorded values: patent US7981903B2
